B1: KAT8 regulatory NSL complex subunit 2, residues 28 to 91; numbered along this chain, Q9H9L4 (parent)
chain: CAFTHRPCSHPRLEGQEFCIKHILEDKNAPFKQCSYISTKNGKRCPNAAPKPEKKDGVSFCAEH

Variants of: B1
Test: abundance fitness (aPCA) (normalised: wild type 0, dead -1); higher = more abundant; growth selection in yeast, the domain comes from the species named
Settings: Homo sapiens
Measured Quantity: abundance fitness
Simply state the number, no unit and no words.

Answered cases to consult:
{"Sequence Change": "P7N", "abundance fitness": -0.204}
{"Sequence Change": "I20W", "abundance fitness": -0.201}
{"Sequence Change": "F31R", "abundance fitness": -0.203}

Now for another entry.
Exam item: For the variant "F31Y" , give its measured abundance fitness value.
Marked response: -0.195

The origin of these recorded values is the Human Domainome abundance scans (Beltran et al. 2025).
